# Subject Of Test: Protein LANA1 (Human herpesvirus 8 type P (isolate GK18))
# Assay Name: blockers of LANA interaction with H2A/H2B – biochemical, FP readout, HTS, primary screen (AID 2629)
# Experimental Parameters: cell-free LANA-H2A/H2B peptide, fluorescence polarization, stronger effect = higher value, concentration not given here
The campaign covered roughly 320,000 compounds. About 1,900 (0.59%) were called active. Only a selection was taken, and actives are over-represented in it overall.
Parameter Measured: inhibition (%)

molecule="FC(F)Oc1ccccc1C1CC(c2ccc(Br)s2)Nc2ncnn21 (configuration not stated)" subject_of_test="Protein LANA1 (Human herpesvirus 8 type P (isolate GK18))" unit_of_measurement=% observed_value=2.23
molecule=COc1ccc(C(=O)/C=C/c2cccnc2)c(OC)c1 subject_of_test="Protein LANA1 (Human herpesvirus 8 type P (isolate GK18))" unit_of_measurement=% observed_value=0.568
molecule="COc1cccc(N2CC(C(=O)Nc3c(C)cccc3C)CC2=O)c1 (configuration not stated)" subject_of_test="Protein LANA1 (Human herpesvirus 8 type P (isolate GK18))" unit_of_measurement=% observed_value=-1.43
molecule=CC(C)C[C@H]1CN=C(Nc2ccccc2)N1CC1CCCCC1 subject_of_test="Protein LANA1 (Human herpesvirus 8 type P (isolate GK18))" unit_of_measurement=% observed_value=-0.894
molecule=CN(CC(=O)Nc1c(Cl)cccc1Cl)C(=O)CNC(=O)C1CCCCC1 subject_of_test="Protein LANA1 (Human herpesvirus 8 type P (isolate GK18))" unit_of_measurement=% observed_value=-5.68
molecule="O=C(NC(CC(=O)N1CCN(c2ccccc2)CC1)c1ccccc1)c1ccccc1Cl (configuration not stated)" subject_of_test="Protein LANA1 (Human herpesvirus 8 type P (isolate GK18))" unit_of_measurement=% observed_value=4.7
molecule=CCOc1ncccc1C(=O)OCC(=O)NC1CC1 subject_of_test="Protein LANA1 (Human herpesvirus 8 type P (isolate GK18))" unit_of_measurement=% observed_value=-3.51
molecule=COc1cc(NC(=O)c2ccccc2)c(OC)cc1NC(=O)Cc1ccccc1 subject_of_test="Protein LANA1 (Human herpesvirus 8 type P (isolate GK18))" unit_of_measurement=% observed_value=-1.39
molecule=COc1ccc(/C=C/C(=O)c2cc(Br)ccc(=O)c2O)cc1 subject_of_test="Protein LANA1 (Human herpesvirus 8 type P (isolate GK18))" unit_of_measurement=% observed_value=182
molecule=NC(=O)COC(=O)c1sc2cc(F)ccc2c1Cl subject_of_test="Protein LANA1 (Human herpesvirus 8 type P (isolate GK18))" unit_of_measurement=% observed_value=0.759
molecule="Cn1c(C(=O)OC(C(=O)NC2CCCCC2)c2ccccn2)cc2sccc21 (configuration not stated)" subject_of_test="Protein LANA1 (Human herpesvirus 8 type P (isolate GK18))" unit_of_measurement=% observed_value=-2.12
molecule=Cc1c(C(=O)NCCN(C)C)oc2ccc(S(=O)(=O)N3CCCC3)cc12 subject_of_test="Protein LANA1 (Human herpesvirus 8 type P (isolate GK18))" unit_of_measurement=% observed_value=0.441
molecule="COc1ccc([N+](=O)[O-])cc1NC(=O)C(C)OC(=O)C1c2ccccc2Oc2ccccc21 (configuration not stated)" subject_of_test="Protein LANA1 (Human herpesvirus 8 type P (isolate GK18))" unit_of_measurement=% observed_value=4.81
molecule=CCCCCCCCCCOC(=O)Cn1c(COc2ccc(C)cc2)[n+](C)c2ccccc21 subject_of_test="Protein LANA1 (Human herpesvirus 8 type P (isolate GK18))" unit_of_measurement=% observed_value=15.8
molecule="COc1ccc(CCNC(=O)C2CCCN(Cc3nc(-c4cccc(Cl)c4)oc3C)C2)cc1OC (configuration not stated)" subject_of_test="Protein LANA1 (Human herpesvirus 8 type P (isolate GK18))" unit_of_measurement=% observed_value=2.76
molecule="CC1=NN(C(=O)c2ccccc2Br)C(O)(c2cccnc2)C1 (configuration not stated)" subject_of_test="Protein LANA1 (Human herpesvirus 8 type P (isolate GK18))" unit_of_measurement=% observed_value=-0.482
molecule="Cc1cc(C)cc(C(=O)NC(CC(N)=O)c2ccc(N3CCC(N4CCCCC4)CC3)c([N+](=O)[O-])c2)c1 (configuration not stated)" subject_of_test="Protein LANA1 (Human herpesvirus 8 type P (isolate GK18))" unit_of_measurement=% observed_value=-1.95
molecule=COC(=O)c1ccccc1OCC(=O)N1CCN(c2ccc(Cl)cc2)CC1 subject_of_test="Protein LANA1 (Human herpesvirus 8 type P (isolate GK18))" unit_of_measurement=% observed_value=3.13
molecule=COc1cc(NC(=O)c2[nH]cnc2C(N)=O)cc(C(=O)Nc2cccc(C(F)(F)F)c2)c1 subject_of_test="Protein LANA1 (Human herpesvirus 8 type P (isolate GK18))" unit_of_measurement=% observed_value=-1.33
molecule=CN(CC(=O)Nc1c(Cl)cccc1Cl)C(=O)c1ccncc1 subject_of_test="Protein LANA1 (Human herpesvirus 8 type P (isolate GK18))" unit_of_measurement=% observed_value=111
molecule="COc1ccc(C2C=C(c3ccc(Br)cc3)Nc3nc(NS(C)(=O)=O)nn32)cc1 (configuration not stated)" subject_of_test="Protein LANA1 (Human herpesvirus 8 type P (isolate GK18))" unit_of_measurement=% observed_value=31.6
molecule=CC(C)C(=O)Nc1ccc2c3c(cccc13)CC2 subject_of_test="Protein LANA1 (Human herpesvirus 8 type P (isolate GK18))" unit_of_measurement=% observed_value=22.9

This collection of values is drawn from PubChem BioAssay AID2629.
